experiment: yeast display, Sf9 membrane polyspecificity reagent, FACS + sequencing; frameworks hold sequencing errors
endpointName: polyreactivity (PSR sort gate)

1. QGQLVESGGGLVQAGGSLRLSCAGSGRTFSSNAMGWYRQGRGKVRELVASISFRGGRTYYADSVKGRFTISRHNAKKTVYLQMNSLKPEDTAVYYCVSRTKRTGYGYWGQGTQVTVSS	high polyreactivity
2. QVQLVESVGGLVQAGVSLPLSCAASGFTFSYNAMGWYIQAPGKERELVATIRSSGGSTNYADSVKGRFTISRDNAKNTVYVQMNSLKPEDTAVYYCAADFSYYSTYDYWGQGTQVTVSS	low polyreactivity
3. QVQLVESGGGLVQAGGSLRLSCAASGSTFDDYAMGWYRQAPGKERELVAAINSDCGGTYYADSVKGRFTISRDNAKNTVYLQMNSLKPEDTAVYYCNVEYEDYYAQRYGYDYWGQGTQVTVSS	low polyreactivity
4. QVQLVESGGGLVQAGGSLRLSCAASGNILEYNAMGWYRQAPGKEREMVAAISRGGITNYADSVKGRFTISRDNAKNTVYLQMNCLKPEDTAVYYCATRWIGYTSQWDHFEYDYWGQGTQVTVSS	low polyreactivity
5. QVQLVESGGGLVQAGGSLRLSCAASGSTLVYNGMVWYRQAPGKEREFVAAIRSNDGSTYYADSVKGRFTISRDNAKNTVYLQMNSLKPEDTAVYYCNNDVWDGYDWPEFDYWGQGTQVTVSS	low polyreactivity
6. QVQLVESGGGLVQAGGSLRLSCAASGSIFVGNAMGWYRQAPGKERELVAAINSGGSTNYADSVKGRFTISRDNAKNTVYLQMNSLKTEDTAVYYCAADDDYCRILQGDQSDDYWGQGTQVTVSS	low polyreactivity
7. QVQLVESGGGLVQAGGSLRLSCAASGFTFPYAMGWYTQAPGKERELVAGISWSGGSTYYADSVKGRFTISRDNAKNTVYLQMNSLKPEDTAVYYCNKYVQSGGTYDYWGQGTQVTVSS	low polyreactivity
8. EEELVESGGGLVQAGGSLRLSCAASGRTFARNAMGWYRQAPGKERELVAGINFSGGNTYYADSVKGRFTISRDNAKNTVYLQMNSLKPEDTAVYYCAARRYWEGDYWGHGTQVTVSS	low polyreactivity
9. QVQLVESGGGLVQAGGSLRLSCVASGRIFLTYAMGWYRQAPGKERELVAAISYSGASTYYADSVKGRFTISRDNAKNTVYLQMNSLKPEDTAVYYCATERVGTPRMNYWGQGTQVTLSS	high polyreactivity
10. QVQLVESGGGLVQAGGSLRLSCAASGLTFYSYAMGWYRQAPGKERELVATIRWSGGSTYYADSVKGRFTISRDNAKNTVYLQMNSLKPEDTAVYFCAADRRINYDGLDMDYWGQGTQVTVSS	low polyreactivity
11. QVQLVESGGGLVQAGGSLRLSCAASGSIFFDGNAMGWYRQAPGKERELVAAISVSGGSTYYADSVKGRFTISRDNAKNTVYLQMNSLKPEDTAVYYCAKYPSKSFVPGDYWGQGTQVTVSS	low polyreactivity

Origin of measurements: the nanobody polyreactivity screen of Harvey et al. (2022)
